assayed_target: NMDA receptor composed of four subunits including 2 sets of heterodimers of NR1 and NR2B (Homo sapiens, UniProt Q13224)
Construct: host or cells: HEK293 (tetracycline-induced expression)
Sequence (Q13224 27-1484, other chains not shown): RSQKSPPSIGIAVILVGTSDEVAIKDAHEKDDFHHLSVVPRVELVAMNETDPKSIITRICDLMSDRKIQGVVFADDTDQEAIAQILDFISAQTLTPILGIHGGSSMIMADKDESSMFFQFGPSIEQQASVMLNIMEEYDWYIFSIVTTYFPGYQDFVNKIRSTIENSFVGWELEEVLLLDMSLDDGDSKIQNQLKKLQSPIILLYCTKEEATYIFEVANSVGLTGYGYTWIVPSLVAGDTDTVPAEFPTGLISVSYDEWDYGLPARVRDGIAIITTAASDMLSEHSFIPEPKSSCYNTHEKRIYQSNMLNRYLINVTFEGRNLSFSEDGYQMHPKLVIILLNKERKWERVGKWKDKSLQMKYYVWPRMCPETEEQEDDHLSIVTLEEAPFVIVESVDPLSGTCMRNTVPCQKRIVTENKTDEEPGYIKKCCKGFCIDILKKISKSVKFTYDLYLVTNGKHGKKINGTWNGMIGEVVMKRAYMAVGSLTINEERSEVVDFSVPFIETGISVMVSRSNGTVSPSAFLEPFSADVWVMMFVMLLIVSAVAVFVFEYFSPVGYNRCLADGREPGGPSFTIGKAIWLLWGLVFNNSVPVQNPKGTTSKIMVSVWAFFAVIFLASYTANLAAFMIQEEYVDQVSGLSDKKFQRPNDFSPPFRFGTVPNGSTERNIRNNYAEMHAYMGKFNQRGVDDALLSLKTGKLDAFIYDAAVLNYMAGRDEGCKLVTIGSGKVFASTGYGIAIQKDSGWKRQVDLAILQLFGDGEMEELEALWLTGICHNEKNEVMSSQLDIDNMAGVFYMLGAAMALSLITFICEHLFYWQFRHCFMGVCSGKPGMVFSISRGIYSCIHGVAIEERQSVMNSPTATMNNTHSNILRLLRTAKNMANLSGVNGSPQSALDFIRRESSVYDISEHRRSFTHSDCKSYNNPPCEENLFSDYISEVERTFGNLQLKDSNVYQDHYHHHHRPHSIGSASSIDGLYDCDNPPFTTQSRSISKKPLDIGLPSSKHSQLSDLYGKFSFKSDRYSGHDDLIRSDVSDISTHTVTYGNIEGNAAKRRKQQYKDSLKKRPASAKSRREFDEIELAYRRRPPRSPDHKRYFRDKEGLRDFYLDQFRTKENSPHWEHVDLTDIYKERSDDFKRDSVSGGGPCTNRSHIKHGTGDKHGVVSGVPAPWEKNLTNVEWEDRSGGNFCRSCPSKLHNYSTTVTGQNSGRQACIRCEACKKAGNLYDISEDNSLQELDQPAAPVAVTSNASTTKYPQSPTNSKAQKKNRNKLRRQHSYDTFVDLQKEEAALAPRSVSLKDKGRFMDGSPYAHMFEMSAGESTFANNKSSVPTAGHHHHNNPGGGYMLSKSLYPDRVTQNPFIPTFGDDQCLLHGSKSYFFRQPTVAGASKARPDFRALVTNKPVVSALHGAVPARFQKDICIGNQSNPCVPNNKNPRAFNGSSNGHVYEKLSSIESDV
experimental_details: NR2B Ca2+ influx assay (FLIPR, Fluo-4) in HEK293 cells expressing human GRIN1 and GRIN2B
Type: cell-based
measurement_conditions: HEK293, 10 μM final compound concentration, glutamic acid/glycine-induced Ca2+ influx, read-out: inhibitory rate (10 μM compound concentration)
Would you mind labelling by inhibition at 10 µM? At or over 90% is criterion met, under is criterion not met.

compound | discrete_label
O=C(NCc1c(C2CC2)ccc2[nH]ncc12)c1ccc(OC(F)(F)F)cc1 [Example 62] | criterion met
COc1ccc2ncn(C)c2c1CNC(=O)c1cc(F)c(OC)c(Cl)c1 [Example 111] | criterion met
COc1ccc2nc(C)n(C)c2c1CNC(=O)c1ccc(C(F)F)c(F)c1 [Example 242] | criterion not met
CCc1ccc2ncn(C)c2c1CNC(=O)c1cc(F)c(OC(F)F)c(F)c1 [Example 131] | criterion met
COc1ccc2ncn(C)c2c1CNC(=O)c1cc(C)c(F)c(F)c1 [Example 54] | criterion not met
O=C(NCc1cccc2[nH]ncc12)c1cc(F)c(Cl)c(F)c1 [Example 189] | criterion not met
O=C(NCc1c(C2CC2)ccc2[nH]ncc12)c1cc(Cl)c(Cl)s1 [Example 83] | criterion met
COc1ccc2ncn(C)c2c1CNC(=O)Nc1ccc(F)c(C(F)(F)F)c1 [Example 267] | criterion not met
Cc1ccc2[nH]nnc2c1CNC(=O)c1ccc(OC(F)F)cc1 [Example 265] | criterion met
COc1ccc2nc(C)n(C)c2c1CNC(=O)c1ccc(OC(F)(F)F)nc1 [Example 233] | criterion not met
O=C(NCc1c(C2CC2)ccc2[nH]ncc12)c1ccc(C(F)(F)F)s1 [Example 82] | criterion met
COc1ccc2ncn(C)c2c1CNC(=O)c1cc(F)c(F)c(Cl)c1 [Example 18] | criterion not met
COc1ccc2ncn(C)c2c1CNC(=O)c1cc(Cl)c(F)c(Cl)c1 [Example 49] | criterion not met
COc1ncc(C(=O)NCc2c(C)ccc3[nH]nnc23)cc1F [Example 193] | criterion not met
O=C(NCc1c(C2CC2)ccc2[nH]ncc12)c1cc(F)c(Cl)c(F)c1 [Example 90] | criterion met
COc1ccc2ncn(C)c2c1CNC(=O)c1ccc(C)s1 [Example 32] | criterion not met
O=C(NCc1c(C2CC2)ccc2[nH]nnc12)c1ccc(OC(F)F)c(F)c1 [Example 212] | criterion met
O=C(NCc1c(C2CC2)ccc2[nH]ncc12)c1ccc(C(F)(F)F)c(F)c1 [Example 92] | criterion met
COc1ccc2nc(C)n(C)c2c1CNC(=O)c1cc(F)c(OC)c(F)c1 [Example 214] | criterion not met
Cc1ccc2[nH]nnc2c1CNC(=O)c1cc(F)c(C)c(F)c1 [Example 196] | criterion not met
CCOc1ncc(C(=O)NCc2cccc3[nH]ncc23)cc1F [Example 171] | criterion not met
Cc1ccc2ncn(C)c2c1CNC(=O)c1ccc(OC(F)F)nc1 [Example 159] | criterion not met
COc1ccc2ncn(C)c2c1CNC(=O)c1csc(C2CC2)c1 [Example 115] | criterion met
CCc1ccc2[nH]nnc2c1CNC(=O)c1cc(F)c(C(F)(F)F)c(F)c1 [Example 205] | criterion not met
